# System: UO-31 renal
# experimentalProtocol: NCI-60 one-dose screen, 48 h
# statedConditions: 10 µM unless noted
# Description: Growth inhibition of the UO-31 human tumor cell line is measured as a screen for anti-cancer activity. Cells are grown in 96 well plates and exposed to the test compound for 48 hours. Compounds are tested at a single concentration, which is 10^-5 M for most compounds. The reported endpoint is percent growth (GI% or GIPRCNT), where numbers from 0 - 100% represent growth inhibition, and numbers from -100% - 0 represent cell death. For example, a value of 40 represents 60% growth inhibition. […]
Compounds without any hit were thinned out: in the full panel of roughly 83,000, 20% have a hit. Calls of active or inactive are those of the source. How the source made its calls: active means growth percent below 10; inactive means the rest.
Use one of these outcomes when replying: active, inactive

[ask] Test call, this molecule: `CN(CCn1sc(=O)n(Cc2ccccc2)c1=O)Cc1ccc2c(Cl)cc(Cl)c(O)c2n1`
[reply] active

[ask] Query `CCCCC(=O)Nc1ncc(Cc2ccc(Cl)cc2)s1` next
[reply] inactive

[ask] Query `O=C(O)c1[nH]c(=O)[nH]c(=O)c1[N+](=O)[O-]` next
[reply] inactive

[ask] Query `O=C1N[C@@H]2NC(=[N+]3CCOCC3)N[C@@H]2N1` next
[reply] inactive

[ask] Query `COc1ccc2c(c1)c(-c1noc(C(=O)c3cn(C)c4ccc(Br)cc34)n1)cn2C` next
[reply] inactive

[ask] Query `O=C(c1ccc(-c2nc(CSc3nc4ccccc4s3)no2)cc1)N1CCSCC1` next
[reply] inactive

[ask] Query `O=C1C(Cl)=C(Oc2ccccc2)C(=O)c2ccccc21` next
[reply] inactive

[ask] Query O=C1CNC(c2ccccc2)C(c2ccccc2)N1 (stereo unspecified) next
[reply] inactive

[ask] Query `Cc1cc2c(O)c(-c3cccc(Cl)c3)c3sc(=O)oc3c2cc1C` next
[reply] inactive

[ask] Query `Cn1cc(-c2csc(-c3c[nH]c4ccc(Br)cc34)n2)c2cnccc21` next
[reply] active

[ask] Query `CC/C(=C(/c1ccc(Cl)cc1)c1ccc(OCCN2CCCC2)cc1)c1ccc(OC)cc1` next
[reply] inactive

###

Assign growth to each entry below.
# Test system: MALME-3M melanoma
# experimentalProtocol: NCI-60 one-dose screen, 48 h (100 = growth as untreated, 0 = no growth, -100 = all killed)
# statedConditions: 10 µM unless noted
This is part of a sample that, as a whole, favours compounds with a hit. Of some 83,000 tested, about 20% had one in any assay.
Value expressed in %; do not type the unit.

[ask] Entry `COc1ccc2nc(NC(=O)CSc3nnc4n3S(=O)(=O)c3ccccc3N4C)sc2c1` : reported growth = ?
[reply] 120

[ask] Query `COC(=O)/C(CCC=C(C)C)=C1\[C@@H](OC(C)=O)C[C@@]2(C)[C@H]1C[C@@H](O)[C@H]1[C@@]3(C)CC[C@H](NCCN)[C@@H](C)[C@@H]3CC[C@@]12C` next
[reply] 89.4

[ask] Query `COc1ccc(-c2nc(/C=C3\SC(=NCc4ccccc4)NC3=O)c3ccccn23)cc1` next
[reply] -33.1

[ask] Query `CSc1nc2sc3c(c2c(=O)n1-c1ccc([N+](=O)[O-])cc1)CCCCC3` next
[reply] 91.4

[ask] Query `O=C(c1ccc(-c2nc(CSc3nc4ccccc4s3)no2)cc1)N1CCSCC1` next
[reply] 66.3

[ask] Query `CCCCOC(=O)OCc1cc(=O)c(O)co1` next
[reply] 102

[ask] Query `Fc1ccc2[nH]cc(-c3nonc3-c3c[nH]c4ccc(Br)cc34)c2c1` next
[reply] 21.2

[ask] Query `Cc1cc(N)c2cc(NC(=O)/C=C\c3ccccc3Cl)ccc2n1` next
[reply] -76.2

[ask] Query `CCOC(=O)/C=C1\S/C(=N\Nc2cc(=O)[nH]c3ccc(Cl)cc23)N(c2ccccc2)C1=O` next
[reply] 92.6

###

# Tested on: ACHN renal
# experimentalProtocol: NCI-60 one-dose screen, 48 h
# statedConditions: 10 µM unless noted
The panel holds about 83,000 compounds, 20% with a hit somewhere; the sample as a whole holds those more often. The source made the active and inactive calls. Rule for the calls: active = growth percent below 10; inactive = the rest.
Use one of these outcomes when replying: True = active, False = inactive

[ask] Test call, this compound: O=C1CC(N2C(=O)/C(=C/C(Cl)=C\c3ccc([N+](=O)[O-])cc3)SC2=S)C(=O)N1c1ccc(Cl)cc1 (centres undefined)
[reply] True

[ask] Query `COc1ccc(C(=S)N2CCN(c3ccccc3Cl)CC2)cc1OC` next
[reply] False

[ask] Query `Fc1cc2c(cc1Cl)N(c1ncnc3ccc(-c4cnc5[nH]ncc5c4)cc13)CC2` next
[reply] False

[ask] Query `Clc1ccc(Sc2cnc(-c3ccccc3)o2)cc1` next
[reply] False

[ask] Query `C=C(C)[C@@H]1CC[C@]2(C(=O)OC)CC[C@]3(C)[C@H](CC[C@@H]4[C@@]5(C)C/C(=C/NC(N)=S)C(=O)C(C)(C)[C@@H]5CC[C@]43C)[C@@H]12` next
[reply] False

[ask] Query `O=C(CSc1nnc2n1S(=O)(=O)c1ccccc1N2c1ccccc1)Nc1nc2ccc(F)cc2s1` next
[reply] False

[ask] Query `CCN(C(=O)N1CCN(c2cc3c(cc2F)c(=O)c(C(=O)O)cn3C2CC2)CC1)c1nc(-c2ccc(Cl)cc2)cs1` next
[reply] True

[ask] Query `OCCNCCCOc1ccc2ncnc(Nc3ccc(Oc4cccc(C(F)(F)F)c4)c(Cl)c3)c2c1` next
[reply] True

[ask] Query `O=S(=O)(NCCCNc1nccc(-c2c(-c3ccc(F)c(O)c3)nc3occn23)n1)c1ccccc1` next
[reply] False

[ask] Query `Cn1c(=O)c2c(nc(NC3=NS(=O)(=O)c4ccccc43)n2CC(=O)N2CCc3ccccc32)n(C)c1=O` next
[reply] False

[ask] Query `CC1=C(Nc2ccc(N3CCN(C)CC3)cc2)C(=O)c2cncnc2C1=O` next
[reply] True

[ask] Query `CC(C)c1ccc(NC(=O)Nc2ccc(NC(=O)CCCC(=O)NOCc3ccccc3)cc2)cc1` next
[reply] False

[ask] Query `COC1=CC(c2ccc[nH]2)=N/C1=C\c1[nH]c(C)c(C(=O)OCc2ccccc2)c1C` next
[reply] True

[ask] Query `O=Cc1ccc([N+](=O)[O-])s1` next
[reply] False

[ask] Query `Cc1ccc(-c2nn(-c3ccccc3)cc2C=C2C(=O)ON=C2C(C)C)cc1` next
[reply] False

[ask] Query `O=C(c1cc2ccccc2o1)c1nn(-c2ccccc2)/c(=N/N=Cc2cn(-c3ccccc3)nc2-c2cc3ccccc3oc2=O)s1` next
[reply] False

[ask] Query `CCNC(=O)c1[nH]cc(-c2ccccc2)c1-c1cc(OC)c2c(c1OC)OCO2` next
[reply] False

[ask] Query `COc1ccc(C(=O)Nc2ncc(Cc3cccc(Cl)c3)s2)cc1OC` next
[reply] False

[ask] Query `C/C(=N/O)c1ccc(F)cc1` next
[reply] True

###

# System: MCF7 breast
# experimentalProtocol: NCI-60 one-dose screen, 48 h (100 = growth as untreated, 0 = no growth, -100 = all killed)
# statedConditions: 10 µM unless noted
The panel holds about 83,000 compounds, 20% with a hit somewhere; the sample as a whole holds those more often.
Assign growth to each entry below.
Value expressed in %; do not type the unit.

[ask] Entry `O=C(c1ccc(Cl)cc1)N1CCN(c2ccnc3cc(Cl)ccc23)CC1` : reported growth = ?
[reply] 83.7

[ask] Query `CCNc1nc(-c2ccc(Cl)c(OC)c2)c(-c2ccnc(NCCCNS(=O)(=O)c3ccc(Cl)cc3)n2)s1` next
[reply] 66.3

[ask] Query `CC(C)c1ccc(COCc2cc(CN3CCCC3)c(O)c3ncccc23)cc1` next
[reply] 7.67

[ask] Query `C=C1C(=O)O[C@H]2[C@H]1CC/C(COC(=O)NCc1ccc(Cn3c(=O)sn(CCI)c3=O)cc1)=C\CC[C@@]1(C)O[C@@H]21` next
[reply] 24.7

[ask] Query `O=C1/C(=C/c2ccc(Cl)c(Cl)c2)CN(C(=O)C(Cl)Cl)C/C1=C\c1ccc(Cl)c(Cl)c1` next
[reply] -57.7

[ask] Query CCCC(=O)NC(c1ccc2c(c1)OCO2)c1ccc2cccnc2c1O (stereo unspecified) next
[reply] 5.86

[ask] Query `CC(C)(C)n1cc(-c2ccnc(NCCCNS(=O)(=O)c3ccc(F)cc3)c2)c(-c2cccc(F)c2)n1` next
[reply] 41.2

[ask] Query Nc1ncnc2c1N=C(c1ccc3c(c1)OCO3)CC(c1cccc(Nc3ccnc4cc(Cl)ccc34)c1)N2 (stereo unspecified) next
[reply] 8.54

[ask] Query Cc1cnc(C(=O)NNc2nc3sc4c(c3c(=O)n2C)C(C)CCC4)cn1 (stereo unspecified) next
[reply] -12

[ask] Query `O=C(Nc1cccc([N+](=O)[O-])c1)c1cc2ccccc2cc1O` next
[reply] -4.92

[ask] Query `Cc1ccc(NC(=S)NNC(=S)NNc2ccccc2)cc1C` next
[reply] 98.9

[ask] Query `CCNC(=O)c1[nH]cc(-c2ccccc2)c1-c1cc(OC)c2c(c1OC)OCO2` next
[reply] 101

[ask] Query CC1Cc2c(Cl)ncnc2N(C)c2ccc(F)cc21 (stereo unspecified) next
[reply] 97.9

[ask] Query `N#C/C(=C\c1ccc2ccccc2c1)c1cc2ccccc2[nH]1` next
[reply] 14.4

[ask] Query `Cc1nc(N2CCOCC2)sc1S(N)(=O)=O` next
[reply] 93.5

[ask] Query `O=C1c2cccnc2C(=O)c2c1c(C(=O)NCCCN1CCCCC1)c1ccccn21` next
[reply] -49.5

[ask] Query `O=C(Cc1ccccc1)Nc1nc(O)c(/C=C2\C(=O)C=Cc3ccccc32)s1` next
[reply] 101

[ask] Query `CCOC(=O)c1cnc2ccccc2c1Cl` next
[reply] 99.1

[ask] Query `c1ccc(CNc2c3ccccc3nc3ccccc23)cc1` next
[reply] 12

[ask] Query `CCN(CC)C(=S)SC(SC(=S)N(CC)CC)C(=O)c1nnn(-c2ccc([N+](=O)[O-])cc2)c1C` next
[reply] 59.3

[ask] Query `COc1ccc(C(=S)N2CCN(c3ccccc3Cl)CC2)cc1OC` next
[reply] 106

From: PubChem BioAssay (NCI)
